Tested on: EKVX NSCLC
assay_info: NCI tumour cell line growth inhibition, 48 h
outcome_measure: TGI

Here are 8 compounds together with their reported answers.
compound="NC(=O)CCC(NC(=O)c1c2ccccc2nc2ccccc12)C(=O)O (stereo not given)" outcome_measure=TGI meas_value="> 100 µM"
compound=O=c1[nH]c2cc([N+](=O)[O-])c(N/N=C/c3ccc(Cl)cc3Cl)c([N+](=O)[O-])c2[nH]1 outcome_measure=TGI meas_value="> 100 µM"
compound=c1ccc2c(CNCCCCCCCCNCc3cccc4ccccc34)cccc2c1 outcome_measure=TGI meas_value="18.8 µM"
compound=O=c1[nH]c2c(c(=O)[nH]1)C(c1ccc([N+](=O)[O-])cc1)c1c([nH]c(=O)[nH]c1=O)O2 outcome_measure=TGI meas_value="> 100 µM"
compound="O=C1CC2CC(CC3(CO3)C2)C1F (stereo not given)" outcome_measure=TGI meas_value="> 100 µM"
compound=COc1cc(CCC(=O)NC[C@@H](O)c2ccccc2)ccc1O outcome_measure=TGI meas_value="> 100 µM"
compound="CCOC(=O)C(NC(=O)CC)(Nc1ccc(F)cc1F)C(F)(F)F (stereo not given)" outcome_measure=TGI meas_value="> 100 µM"
compound=NC(N)=NS(=O)(=O)c1ccc(NC(=O)c2cccc3c(N)c4ccccc4nc23)cc1 outcome_measure=TGI meas_value="> 100 µM"

Query: EKVX NSCLC / TGI / C=C1CC2(CCS(=O)(=O)c3ccccc32)OC1=O (stereo not given) : value?
Result: 33.1 µM

Query: Moving on to CCCC(=O)OC[n+]1ccc(-c2c(COC(=O)NC(C)C)c(COC(=O)NC(C)C)c3n2CCC3)cc1
Result: > 100 µM

====

System: MALME-3M melanoma
assay_info: NCI tumour cell line growth inhibition, 48 h; in the data active = GI50 below about 0.43 µM; inactive = the rest
Can you answer with just one of these options? active, inactive

structure_smiles=COc1cc(/C=C/C(=O)c2c(-c3ccc(F)cc3)nc3sc(C)nn23)cc(OC)c1OC tested_on="MALME-3M melanoma" category_label=inactive
structure_smiles=CC(=O)N[C@@H](Cc1ccc(OP(=O)(O)O)cc1)C(=O)N[C@H]1CCC(=O)N2CCC[C@@H](C(=O)NCc3ccccc3)N2C1=O tested_on="MALME-3M melanoma" category_label=inactive
structure_smiles=COc1ccc(-c2[nH]nc(N)c2-c2cc(OC)c(OC)c(OC)c2)cc1 tested_on="MALME-3M melanoma" category_label=active

Query: In this assay, the call recorded for CN(C)C=Nc1c(I)cc(I)c(CCC(=O)O)c1I was what?
Result: inactive

Query: Moving on to CCCN(CCC)c1ccc(C=O)c(C)c1
Result: inactive

Query: Moving on to CNC(=O)c1cccc(C#Cc2cncnc2Nc2ccc(OCc3cccc(F)c3)c(Cl)c2)c1
Result: inactive

====

Measured GI50, listed per entry for reference.
Tested on: NCI-H460 lung
assay_info: NCI tumour cell line growth inhibition, 48 h

Here are 3 molecules together with their reported answers.
molecule=CCCCCCCCCCCCCCCCN(CC)CC outcome_measure=GI50 meas_value="1920 nM"
molecule="COc1cc(C2CC(=O)Nc3c2c(C)nn3-c2nc3ccccc3[nH]2)cc(OC)c1O (configuration not stated)" outcome_measure=GI50 meas_value="3190 nM"
molecule="COc1ccc2nc3cccc([N+](=O)[O-])c3c(NC(C)CN(C)C)c2c1 (configuration not stated)" outcome_measure=GI50 meas_value="510 nM"

Query: Using the record for NC(N)=Nc1ccc(/C=C2\C=Cc3ccccc32)cc1 , report its GI50.
Result: 2010 nM

====

Measured TGI, listed per entry for reference.
Tested on: 786-0 renal
assay_info: NCI tumour cell line growth inhibition, 48 h

structure_smiles=Nc1nn(C(=O)Nc2c(F)cccc2F)c2ccccc12 outcome_measure=TGI meas_value="> 100 µM"
structure_smiles=CCOC(=O)c1cc(NS(=O)(=O)c2ccc(C)cc2)cc(C(=O)OCC)c1 outcome_measure=TGI meas_value="> 100 µM"

Could you now consider this next molecule?
Query: Using the record for CN(/N=C\c1ccnc2ccccc12)c1ccccc1 , report its TGI.
Result: 37.7 µM

====

Test system: IGROV1 ovarian
assay_info: NCI tumour cell line growth inhibition, 48 h
Residues, ends and D or L forms follow the SMILES beside them. *: point of attachment. Cbz = O=C(OCc1ccccc1)*
Measured GI50, listed per entry for reference.

Here are 5 molecules together with their reported answers.
molecule=COC(=O)CNc1nc(N(C)O)nc(N(C)O)n1 tested_on="IGROV1 ovarian" outcome_measure=GI50 meas_value="7.38 µM"
molecule=C=CC(=O)N1CC[C@H](n2nc(C#Cc3cc(OC)cc(OC)c3)c3c(N)ncnc32)C1 tested_on="IGROV1 ovarian" outcome_measure=GI50 meas_value="2.88 µM"
molecule=C=CCOC(=O)Nc1cccn([C@H](CC(C)C)C(=O)NCCC(C)C)c1=O tested_on="IGROV1 ovarian" outcome_measure=GI50 meas_value="60.4 µM"
molecule=N#Cc1c(N/N=C\c2ccc(Cl)cc2)nc(N)nc1N1CCOCC1 tested_on="IGROV1 ovarian" outcome_measure=GI50 meas_value="26 µM"
molecule=NC(N)=N/N=C/c1c(-c2cccnc2)nc2sc(Cl)cn12 tested_on="IGROV1 ovarian" outcome_measure=GI50 meas_value="17.5 µM"

Query: Using the record for CCCCCCCCCCCCCCCCN(CC)CC , report its GI50.
Result: 1.79 µM

Query: Moving on to CN(C)CCS(=O)(=O)Nc1cc(-c2ccc3ncc(C#N)c(Nc4ccc(F)c(Cl)c4)c3c2)cnc1Cl
Result: 0.0777 µM

Query: Moving on to CC(C)C[C@@H](C=O)NC(=O)[C@H](CC(C)C)NC(=O)[C@H](CC(C)C)NC(=O)OCc1ccccc1 (Cbz-Leu-Leu-Leu-aldehyde)
Result: 0.444 µM

Query: Moving on to CC(C)(C)c1cc(-c2nc3ccc(N4CCN(CCO)CC4)cc3[nH]2)cc(C(C)(C)C)c1O
Result: 3.25 µM

Query: Moving on to CN(C)C=Nc1c(I)cc(I)c(CCC(=O)O)c1I
Result: > 100 µM

====

Measured GI50, listed per entry for reference.
Tested on: DU-145 prostate
assay_info: NCI tumour cell line growth inhibition, 48 h

Here are 8 compounds together with their reported answers.
compound=CC(=O)OCCCC#CC#Cc1cccc(=O)o1 tested_on="DU-145 prostate" outcome_measure=GI50 meas_value="11.7 µM"
compound=Nc1ncn([C@H]2C[C@H](OP(=O)(O)OC[C@H]3O[C@@H](n4cnc5c(=O)[nH]c(N)nc54)C[C@@H]3O)[C@@H](CO)O2)c(=O)n1 tested_on="DU-145 prostate" outcome_measure=GI50 meas_value="> 100 µM"
compound="COc1cc(C2CC(=O)Nc3c2c(C)nn3-c2nc3ccccc3[nH]2)cc(OC)c1O (centres undefined)" tested_on="DU-145 prostate" outcome_measure=GI50 meas_value="4.98 µM"
compound=COc1cc2c(c(OC)c1OC)-c1c(c3ccc([N+](=O)[O-])cc3c(=O)n1CCCN)C2=O tested_on="DU-145 prostate" outcome_measure=GI50 meas_value="7.27 µM"
compound="N#CC1=C(N)Oc2c(sc3c(Br)cccc23)C1c1ccc(Cl)cc1 (centres undefined)" tested_on="DU-145 prostate" outcome_measure=GI50 meas_value="0.533 µM"
compound=O=[N+]([O-])c1ccc2c(c1)C(c1ccccc1Cl)=Nc1c(n[nH]c1-c1cccnc1)N2 tested_on="DU-145 prostate" outcome_measure=GI50 meas_value="> 25 µM"
compound="Cc1ccccc1C(C(=O)NC1CCCCC1)N(C(=O)CNc1ncccc1F)c1cccc(F)c1 (centres undefined)" tested_on="DU-145 prostate" outcome_measure=GI50 meas_value="> 100 µM"
compound=C=CC(=O)Nc1cccc(Oc2nc(Nc3ccc(N4CCN(C)CC4)cc3OC)ncc2Cl)c1 tested_on="DU-145 prostate" outcome_measure=GI50 meas_value="1.59 µM"

Query: DU-145 prostate / GI50 / Cc1c2c(nn1-c1ccc(S(=O)(=O)NC(=S)NC(=O)c3ccccc3)cc1)-c1ccccc1CC2 : value?
Result: 23.9 µM

====

Tested on: OVCAR-8 ovarian
assay_info: NCI tumour cell line growth inhibition, 48 h
outcome_measure: GI50

Here are 5 molecules together with their reported answers.
molecule="Cc1ccsc1-c1ccc2c(c1)COC2(CCCN(C)C)c1ccc(F)cc1 (stereo unspecified)" meas_value="3280 nM"
molecule=Cc1ccc(OCCOCCOCCOCCOCCOc2ccc(C)n(O)c2=S)c(=S)n1O meas_value="38.4 nM"
molecule=NC(N)=Nc1ccc(/C=C2\C=Cc3ccccc32)cc1 meas_value="2220 nM"
molecule=COc1ccc(Cn2cc3c(c2-c2cc(OC)c(OC)c(OC)c2)CCc2c(CO)noc2-3)cc1 meas_value="417 nM"
molecule=COC(=O)c1oc2c(C(=O)/C=C/c3ccc(OC)cc3)c(OCCN3CCOCC3)ccc2c1C meas_value="1800 nM"

Query: Using the record for Cc1ccccc1C(C(=O)NC1CCCCC1)N(C(=O)CNc1ncccc1F)c1cccc(F)c1 (stereo unspecified) , report its GI50.
Result: 19000 nM

Query: Moving on to CC/C=C\C[C@H](O)C/C=C1/C(=O)C=C[C@@H]1C/C=C\CCCCO
Result: 3240 nM

Query: Moving on to O=C(c1ccccc1)c1nc2ccc(C(F)(F)F)cc2nc1N1CCN(c2ccccc2)CC1
Result: 41800 nM

Query: Moving on to C=C1C(=O)O[C@H]2[C@H]1CC/C(CNC(=O)/C=C/c1ccccc1F)=C\CC[C@@]1(C)O[C@@H]21
Result: 2950 nM

Query: Moving on to CC[PH+](CC)CC.CC[PH+](CC)CC.[Au]
Result: 17900 nM

Query: Moving on to O=[N+]([O-])c1ccc2c(c1)C(c1ccccc1Cl)=Nc1c(n[nH]c1-c1cccnc1)N2
Result: > 25000 nM

Query: Moving on to O=C1CC(N2C(=O)/C(=C/C(Cl)=C\c3ccc([N+](=O)[O-])cc3)SC2=S)C(=O)N1c1ccc(O)cc1 (stereo unspecified)
Result: 2160 nM

Query: Moving on to CN(C)c1ccccc1[CH2][Ga]([Cl])[CH2]c1ccccc1N(C)C
Result: 1470 nM

Query: Moving on to O=c1oc2ccc(Br)cc2c(=O)n1-c1ccc(Cl)cc1F
Result: 1700 nM

Query: Moving on to N#CC1=C(N)Oc2c(sc3c(Br)cccc23)C1c1ccc(Cl)cc1 (stereo unspecified)
Result: 1710 nM

Query: Moving on to NC(N)=N/N=C/c1c(-c2cccnc2)nc2sc(Cl)cn12
Result: 16500 nM
